The measured values listed here are drawn from patent US8134015B2.

Entries annotated with measured IC50
experimentalTarget: rat NaPi-2b (Rattus norvegicus)
Sequence (Q9JJ09 whole entry): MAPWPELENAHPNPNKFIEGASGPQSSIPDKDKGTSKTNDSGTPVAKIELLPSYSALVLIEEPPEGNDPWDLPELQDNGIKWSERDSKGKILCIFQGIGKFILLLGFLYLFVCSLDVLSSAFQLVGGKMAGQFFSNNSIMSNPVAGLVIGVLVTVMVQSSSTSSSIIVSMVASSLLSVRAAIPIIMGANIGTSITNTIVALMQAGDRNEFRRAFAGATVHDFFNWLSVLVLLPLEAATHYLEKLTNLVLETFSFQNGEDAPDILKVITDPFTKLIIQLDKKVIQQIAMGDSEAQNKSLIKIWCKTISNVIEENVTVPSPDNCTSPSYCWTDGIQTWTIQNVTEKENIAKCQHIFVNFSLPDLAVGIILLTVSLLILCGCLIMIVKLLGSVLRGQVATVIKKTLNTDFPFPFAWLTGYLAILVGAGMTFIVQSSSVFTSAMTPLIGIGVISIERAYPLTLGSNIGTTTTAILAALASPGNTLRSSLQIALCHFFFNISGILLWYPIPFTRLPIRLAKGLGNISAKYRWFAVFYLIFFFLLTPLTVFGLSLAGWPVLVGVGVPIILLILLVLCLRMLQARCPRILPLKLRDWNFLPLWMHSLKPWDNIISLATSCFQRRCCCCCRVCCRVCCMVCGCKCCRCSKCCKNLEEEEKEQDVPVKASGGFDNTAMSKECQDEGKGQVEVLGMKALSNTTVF
test: Sodium-dependent phosphate uptake of Xenopus oocytes which expressed NaPi-2b (32P)
measurementSetup: Xenopus oocytes expressing rat NaPi-2b, 32P radioactive phosphorus; read-out: IC50 (phosphate uptake inhibitory activity)

Notebook: Cc1ccc(/C=N/NC(=O)c2cc(Cl)ccc2NC(=O)c2cccc(C[S+]([O-])Cc3ccco3)c2)cc1C (stereo not drawn) [Compound 687] , IC50 read as < 3 µM

Notebook: Cc1ccc(/C=N/NC(=O)c2c(C)csc2NC(=O)c2cccc(CN3CCN(CCO)CC3)c2)cc1C [Compound 575] , IC50 read as < 3 µM

Notebook: COc1ccc(/C=N/NC(=O)c2cc(F)ccc2NC(=O)c2cccc(CN(CC(C)O)CC(C)O)c2)cc1 (stereo not drawn) [Compound 990] , IC50 read as < 3 µM
